- system.under.test: rTRPV6-R469A (Rattus norvegicus, UniProt Q9R186, R509A)
- Sequence (Q9R186 41-767 R509A limits assumed): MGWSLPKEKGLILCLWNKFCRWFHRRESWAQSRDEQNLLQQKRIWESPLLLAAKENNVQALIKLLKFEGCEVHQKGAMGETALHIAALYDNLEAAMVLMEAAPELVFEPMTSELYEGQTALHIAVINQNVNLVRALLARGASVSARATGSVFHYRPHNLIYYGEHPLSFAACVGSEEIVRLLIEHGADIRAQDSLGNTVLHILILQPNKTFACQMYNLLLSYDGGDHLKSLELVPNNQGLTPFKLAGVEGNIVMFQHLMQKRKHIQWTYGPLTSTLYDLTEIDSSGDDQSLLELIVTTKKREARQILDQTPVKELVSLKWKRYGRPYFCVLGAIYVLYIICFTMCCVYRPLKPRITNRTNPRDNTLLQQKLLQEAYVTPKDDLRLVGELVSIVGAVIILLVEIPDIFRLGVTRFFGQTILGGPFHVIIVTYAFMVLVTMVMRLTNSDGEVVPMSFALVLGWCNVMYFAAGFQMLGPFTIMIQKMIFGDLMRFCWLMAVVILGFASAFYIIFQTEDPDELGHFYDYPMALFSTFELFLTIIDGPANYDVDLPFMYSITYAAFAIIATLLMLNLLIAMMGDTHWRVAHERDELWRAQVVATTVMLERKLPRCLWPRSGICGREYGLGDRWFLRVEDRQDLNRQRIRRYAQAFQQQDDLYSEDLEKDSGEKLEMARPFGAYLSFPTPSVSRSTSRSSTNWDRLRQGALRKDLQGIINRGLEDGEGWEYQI
- test.method.notes: cell-based
- Excerpt: To further characterize the 2-APB binding site and to examine the contribution of individual residues to 2-APB inhibition, we introduced alanine substitutions at residues in the 2-APB binding pocket (E402, H425, Y466, R469, and M602) and tested 2-APB inhibition. […]
pIC50: −log10 of the molar value.
property.name: pIC50

>  <compound>
NCCOB(c1ccccc1)c1ccccc1 [2-APB, 2-aminoethoxydiphenyl borate]

>  <property.name>
pIC50

>  <recorded.number>
4.63

$$$$

---

- system.under.test: TRPV6* (rat TRPV6 residues 1-668, I62Y, L92N, M96Q) (Rattus norvegicus, UniProt Q9R186, I102Y/L132N/M136Q)
- Sequence (Q9R186 1-668 I102Y/L132N/M136Q): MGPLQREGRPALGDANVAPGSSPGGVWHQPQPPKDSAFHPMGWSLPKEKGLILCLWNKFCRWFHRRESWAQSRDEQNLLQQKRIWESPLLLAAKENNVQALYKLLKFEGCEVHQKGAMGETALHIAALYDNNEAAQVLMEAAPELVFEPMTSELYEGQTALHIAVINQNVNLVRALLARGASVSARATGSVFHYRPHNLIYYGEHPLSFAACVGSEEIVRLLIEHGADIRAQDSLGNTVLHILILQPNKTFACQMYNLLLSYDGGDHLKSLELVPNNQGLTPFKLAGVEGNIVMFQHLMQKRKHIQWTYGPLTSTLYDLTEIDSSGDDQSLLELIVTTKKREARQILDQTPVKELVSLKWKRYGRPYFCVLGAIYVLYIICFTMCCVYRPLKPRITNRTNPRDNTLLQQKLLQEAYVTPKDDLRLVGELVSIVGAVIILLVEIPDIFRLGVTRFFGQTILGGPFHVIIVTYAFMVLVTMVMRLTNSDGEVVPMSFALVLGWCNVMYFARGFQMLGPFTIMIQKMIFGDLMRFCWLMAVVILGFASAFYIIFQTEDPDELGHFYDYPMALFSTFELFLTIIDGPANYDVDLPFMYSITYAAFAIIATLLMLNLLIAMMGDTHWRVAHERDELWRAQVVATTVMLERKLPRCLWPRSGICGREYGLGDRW
- test.method.notes: cell-based

>  <molecule>
NCCOB(c1ccccc1)c1ccccc1 [2-APB, 2-aminoethoxydiphenyl borate]

>  <IC50 (µM)>
156

$$$$
